assay: Pharmacokinetic study in control and DSS-induced UC rats after oral administration of LXF (serum, UPLC-MS/MS); assay type: in vivo, Sprague-Dawley (SD) rats; settings: male, Sprague-Dawley, rat, serum, po, 3.3 g/kg, control group; oral LXF 3.30 g/kg; rat serum; n = 8; mean ± SD
REPORTED_ENDPOINT: half-life (h)

MOLECULE: C=C1CC[C@@H]2[C@](C)(CO)[C@H](O)CC[C@@]2(C)[C@H]1C/C=C1\C=COC1=O [dehydroandrographolide]
MEASURE_UNIT: h
half-life: 2.28

I = C=C1CC[C@@H]2[C@](C)(CO)[C@H](O)CC[C@@]2(C)[C@@H]1C/C=C1/C(=O)OC[C@H]1O [andrographolide]
II = COc1c(O)c(=O)n2c3ccccc3c3ccnc1c32 [4-methoxy-5-hydroxy-canthin-6-one]
III = COC(=O)c1nccc2c1[nH]c1ccccc12
Query: Provide the items ranked by increasing half-life. Returns: the labels arranged in the requested order.
Reply: III, II, I

###

Test: Stability test of QC samples in rat serum
Format: in vitro ADME
Details: −80°C for 30 days, high QC (nominal 4,000.00 / 1,500.00 / 450.00 / 400.00 ng/ml for compounds 1-4), n = 6
Method: Quality control (QC) samples at low, middle and high concentrations (61.50, 384.38, and 4,000.00 ng/ml for andrographolide; 24.00, 150.00, and 1,500.00 ng/ml for dehydroandrographolide; 6.91, 43.20, and 450.00 ng/ml for 1-methoxicabony-β-carboline; 6.30, 39.38, and 400.00 ng/ml for 4-methoxy-5-hydroxy-canthin-6-one) were also prepared by the same procedures. […]
REPORTED_ENDPOINT: Stability, mean concentration found (ng/mL)

COMPOUND: COC(=O)c1nccc2c1[nH]c1ccccc12
MEASURE_UNIT: ng/mL
Stability, mean concentration found: 436.91
//
COMPOUND: COc1c(O)c(=O)n2c3ccccc3c3ccnc1c32 [4-methoxy-5-hydroxy-canthin-6-one]
MEASURE_UNIT: ng/mL
Stability, mean concentration found: 381.78

###

test: Pharmacokinetic study in control and DSS-induced UC rats after oral administration of LXF (serum, UPLC-MS/MS); assay type: in vivo, Sprague-Dawley (SD) rats; settings: male, Sprague-Dawley, rat, serum, po, 3.3 g/kg, control group; oral LXF 3.30 g/kg; rat serum; n = 8; mean ± SD
REPORTED_ENDPOINT: AUC(0-t) (ng·h/mL)

MOLECULE: C=C1CC[C@@H]2[C@](C)(CO)[C@H](O)CC[C@@]2(C)[C@H]1C/C=C1\C=COC1=O [dehydroandrographolide]
REPORTED_ENDPOINT: AUC(0-t)
EXPERIMENTAL_VALUE: 2330

a = COC(=O)c1nccc2c1[nH]c1ccccc12
b = C=C1CC[C@@H]2[C@](C)(CO)[C@H](O)CC[C@@]2(C)[C@@H]1C/C=C1/C(=O)OC[C@H]1O [andrographolide]
c = COc1c(O)c(=O)n2c3ccccc3c3ccnc1c32 [4-methoxy-5-hydroxy-canthin-6-one]
Query: Ascending by AUC(0-t), please. Reply with the labels, ordered as the question asks.
Reply: a, c, b

###

test: Stability test of QC samples in rat serum; format: in vitro ADME; details: 25°C for 12 h, low QC (nominal 61.50 / 24.00 / 6.91 / 6.30 ng/ml for compounds 1-4), n = 6
REPORTED_ENDPOINT: Stability, mean concentration found (ng/mL)

I = COc1c(O)c(=O)n2c3ccccc3c3ccnc1c32 [4-methoxy-5-hydroxy-canthin-6-one]
II = C=C1CC[C@@H]2[C@](C)(CO)[C@H](O)CC[C@@]2(C)[C@H]1C/C=C1\C=COC1=O [dehydroandrographolide]
Query: Would you let me know which has the greater Stability, mean concentration found value, I or II ? Output the label that corresponds to your choice.
Reply: II

I = COC(=O)c1nccc2c1[nH]c1ccccc12
II = C=C1CC[C@@H]2[C@](C)(CO)[C@H](O)CC[C@@]2(C)[C@@H]1C/C=C1/C(=O)OC[C@H]1O [andrographolide]
Query: Would you mind telling me which has the lower recorded Stability, mean concentration found between I and II ? Answer by stating the label of the chosen item.
Reply: I
(I: 7.09 ng/mL, II: 56.68 ng/mL)

###

experiment: Pharmacokinetic study in control and DSS-induced UC rats after oral administration of LXF (serum, UPLC-MS/MS); type: in vivo, Sprague-Dawley (SD) rats; conditions: male, Sprague-Dawley, rat, serum, po, 3.3 g/kg, UC group (4% DSS for 7 days); oral LXF 3.30 g/kg; rat serum; n = 8; mean ± SD
REPORTED_ENDPOINT: Cmax (µg/mL)

In the examples that follow, each entry is paired with its recorded Cmax.
MOLECULE: COC(=O)c1nccc2c1[nH]c1ccccc12
MEASURE_UNIT: µg/mL
EXPERIMENTAL_VALUE: 0.16
//
MOLECULE: C=C1CC[C@@H]2[C@](C)(CO)[C@H](O)CC[C@@]2(C)[C@H]1C/C=C1\C=COC1=O [dehydroandrographolide]
MEASURE_UNIT: µg/mL
EXPERIMENTAL_VALUE: 1.15

A = C=C1CC[C@@H]2[C@](C)(CO)[C@H](O)CC[C@@]2(C)[C@@H]1C/C=C1/C(=O)OC[C@H]1O [andrographolide]
B = COc1c(O)c(=O)n2c3ccccc3c3ccnc1c32 [4-methoxy-5-hydroxy-canthin-6-one]
Query: Rank A against B by their Cmax values and give the higher one. In your reply, give the label of the chosen option.
Reply: A
(A: 4.09 µg/mL, B: 0.419 µg/mL)

###

test: Stability test of QC samples in rat serum; type: in vitro ADME; settings: three freeze-thaw, low QC (nominal 61.50 / 24.00 / 6.91 / 6.30 ng/ml for compounds 1-4), n = 6
REPORTED_ENDPOINT: Stability, mean concentration found (ng/mL)

COMPOUND: C=C1CC[C@@H]2[C@](C)(CO)[C@H](O)CC[C@@]2(C)[C@H]1C/C=C1\C=COC1=O [dehydroandrographolide]
MEASURE_UNIT: ng/mL
EXPERIMENTAL_VALUE: 21.20
--
COMPOUND: COc1c(O)c(=O)n2c3ccccc3c3ccnc1c32 [4-methoxy-5-hydroxy-canthin-6-one]
MEASURE_UNIT: ng/mL
EXPERIMENTAL_VALUE: 5.65

I = COC(=O)c1nccc2c1[nH]c1ccccc12
II = C=C1CC[C@@H]2[C@](C)(CO)[C@H](O)CC[C@@]2(C)[C@@H]1C/C=C1/C(=O)OC[C@H]1O [andrographolide]
Query: Lower value of Stability, mean concentration found belongs to which: I or II ? Response format: the label of the selected entry.
Reply: I

###

test: Pharmacokinetic study in control and DSS-induced UC rats after oral administration of LXF (serum, UPLC-MS/MS); format: in vivo, Sprague-Dawley (SD) rats; settings: male, Sprague-Dawley, rat, serum, po, 3.3 g/kg, UC group (4% DSS for 7 days); oral LXF 3.30 g/kg; rat serum; n = 8; mean ± SD
REPORTED_ENDPOINT: Tmax (min)

Worked cases, answers included:
COMPOUND: COc1c(O)c(=O)n2c3ccccc3c3ccnc1c32 [4-methoxy-5-hydroxy-canthin-6-one]
MEASURE_UNIT: min
Tmax: 25.8

COMPOUND: C=C1CC[C@@H]2[C@](C)(CO)[C@H](O)CC[C@@]2(C)[C@H]1C/C=C1\C=COC1=O [dehydroandrographolide]
MEASURE_UNIT: min
Tmax: 22.8

P = COC(=O)c1nccc2c1[nH]c1ccccc12
Q = C=C1CC[C@@H]2[C@](C)(CO)[C@H](O)CC[C@@]2(C)[C@@H]1C/C=C1/C(=O)OC[C@H]1O [andrographolide]
Query: Which one would you say has the larger Tmax value: P , or Q ? Let me know the label of the one you choose.
Reply: P

###

assay: Stability test of QC samples in rat serum; format: in vitro ADME; conditions: 4°C for 24 h, high QC (nominal 4,000.00 / 1,500.00 / 450.00 / 400.00 ng/ml for compounds 1-4), n = 6
REPORTED_ENDPOINT: Stability, mean concentration found (ng/mL)

COMPOUND: COC(=O)c1nccc2c1[nH]c1ccccc12
REPORTED_ENDPOINT: Stability, mean concentration found
EXPERIMENTAL_VALUE: 442.09
//
COMPOUND: COc1c(O)c(=O)n2c3ccccc3c3ccnc1c32 [4-methoxy-5-hydroxy-canthin-6-one]
REPORTED_ENDPOINT: Stability, mean concentration found
EXPERIMENTAL_VALUE: 391.53

###

experiment: Pharmacokinetic study in control and DSS-induced UC rats after oral administration of LXF (serum, UPLC-MS/MS); format: in vivo, Sprague-Dawley (SD) rats; settings: male, Sprague-Dawley, rat, serum, po, 3.3 g/kg, UC group (4% DSS for 7 days); oral LXF 3.30 g/kg; rat serum; n = 8; mean ± SD; read-out: MRT0→∞
REPORTED_ENDPOINT: MRT inf (h)

// solved cases for MRT inf follow
COMPOUND: C=C1CC[C@@H]2[C@](C)(CO)[C@H](O)CC[C@@]2(C)[C@H]1C/C=C1\C=COC1=O [dehydroandrographolide]
MRT inf / h: 5.08

COMPOUND: COC(=O)c1nccc2c1[nH]c1ccccc12 [1-methoxicabony-β-carboline]
MRT inf / h: 2.23

1 = COc1c(O)c(=O)n2c3ccccc3c3ccnc1c32 [4-methoxy-5-hydroxy-canthin-6-one]
2 = C=C1CC[C@@H]2[C@](C)(CO)[C@H](O)CC[C@@]2(C)[C@@H]1C/C=C1/C(=O)OC[C@H]1O [andrographolide]
Query: Between 1 and 2 , whose recorded MRT inf is greater? Give the label of your selection.
Reply: 2
(2: 7.4 h, 1: 3.66 h)
